assay: NCI Yeast Anticancer Drug Screen. Data for the mec2-1 strain (AID 157); details: S. cerevisiae mec2-1 strain, at 5.0 µM (retest, dose inferred, filed as 0.5), active compounds read high
Compounds without any hit were thinned out: in the full panel of roughly 79,000, 15% have a hit.
READOUT NAME: growth inhibition (%)
Respond numerically; units are % and should not be typed.

Some compounds with recorded growth inhibition:
{"columns": ["COMPOUND", "UNITS", "growth inhibition"],
 "data": [
  ["CCOC(=O)C(=Cc1ccccc1Br)C(=O)OCC", "%", 33],
  ["CCOC(=O)/C(=N/NS(=O)(=O)c1c(C)cc(C)cc1C)c1ccco1", "%", -2],
  ["CCOC(=O)CCCCCN", "%", 1],
  ["CC1(c2ccc3ccccc3c2)C(C#N)(C#N)C1(C#N)C#N", "%", 94],
  ["CO[C@H]1C[C@@H]2CC[C@@H](C)[C@@](O)(O2)C(=O)C(=O)N2CCCC[C@H]2C(=O)O[C@H]([C@H](C)C[C@@H]2CC[C@@H](OC(=O)C(C)(CO)CO)[C@H](OC)C2)CC(=O)[C@H](C)/C=C(\\C)[C@@H](O)[C@@H](OC)C(=O)[C@H](C)C[C@H](C)/C=C/C=C/C=C/1C", "%", 99],
  ["Nc1ccc2[nH]c3ccccc3c2c1", "%", 0],
  ["Nc1nccc2c1ncn2C1C=C(CO)C(O)C1O (stereo not drawn)", "%", 3],
  ["NCCCCC(N)C(=O)Nc1ccc2ccccc2c1 (stereo not drawn)", "%", -41],
  ["c1ccc2c(c1)[nH]c1c[n+]3c(c[n+]12)[nH]c1ccccc13", "%", 8],
  ["Nc1cc(Cl)c(I)cc1Cl", "%", -15]
]}

Could you tell me which growth inhibition is on file for COc1cc(C2c3cc4c(cc3C(OC3CCCCO3)C3COC(=O)C23)OCO4)cc(OC)c1OC (stereo not drawn) ?
-1

Request: Oc1ccc(C2(c3ccc(O)c(Cl)c3)CC3CCC2C3)cc1Cl (stereo not drawn)
99

Request: Cc1ccc(S(=O)(=O)CC2(Br)Cc3ccccc3C2=O)cc1 (stereo not drawn)
76

----------
Assay: NCI Yeast Anticancer Drug Screen. Data for the rad50 strain (AID 155);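 also: 0% = growth of vehicle-only cultures of the same strain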
Details: S. cerevisiae rad50 strain growth inhibition; at 5.0 µM (retest, dose inferred, filed as 0.5); active compounds read high
Experimental: Growth inhibition of yeast strains with defined genetic alterations is measured as a screen for potential anti-cancer activity. Selected strains with alterations in DNA damage repair or cell cycle control were exposed to compounds and growth inhibition was measured relative to vehicle treated controls. The strain used in this assay is rad50
Compounds without any hit were thinned out: in the full panel of roughly 79,000, 15% have a hit.
READOUT NAME: growth inhibition (%)
Respond numerically; units are % and should not be typed.

{"columns": ["MOLECULE", "growth inhibition, %"],
 "data": [
  ["O=[N+]([O-])/C=C/c1ccco1", 59]
]}

Could you tell me which growth inhibition is on file for O=C(/C=C/c1ccccc1)NOC(=O)/C=C/c1ccccc1 ?
42

Request: O=C(C[N+]1(CCc2ccccc2)CCOCC1)c1ccc(-c2ccccc2)cc1
2

----------
experiment: NCI Yeast Anticancer Drug Screen. Data for the mlh1 rad18 strain (AID 175); details: S. cerevisiae mlh1 rad18 strain growth inhibition; at 50.0 µM; active compounds read high
Compounds without any hit were thinned out: in the full panel of roughly 79,000, 15% have a hit. The source made the active and inactive calls. Cut-off read from the data, not from the text of the source: active = growth inhibition above about 70%; inactive = the rest.
Recorded growth inhibition, one value per entry.

Some compounds with recorded growth inhibition:
{"columns": ["COMPOUND", "RESULT"],
 "data": [
  ["CC(C)C1/C(=N/O)CC(c2ccccc2)N(N=O)C1c1ccccc1 (stereo not drawn)", "90.3% (active)"],
  ["CCOc1ccc2c(c1)nc1cc(Cl)ccc1[n+]2C", "89.7% (active)"]
]}

// next item, growth inhibition requested
Could you tell me which growth inhibition is on file for C=CS(=O)(=O)c1ccc(C)cc1 ?
88.5% (active)
